src = patent US9296745B2

Some compounds, each annotated with its measured IC50.
tested on: Human DGAT2 (hDGAT2) (Homo sapiens (Human))
assay overview: In vitro DGAT2 assay, IC50 determination with hDGAT2 membrane fraction
Assay type: biochemical
experimental context: geometric mean; background for complete inhibition of DGAT2 obtained with 50 μM (1R,2R)-2-({3′-Fluoro-4′-[(6-fluoro-1,3-benzothiazol-2-yl)amino]-1,1′-biphenyl-4-yl}carbonyl)cyclopentanecarboxylic acid; read-out: DGAT2 IC50

compound	IC50 (µM)
N#Cc1ccc(-c2nc3ccc(N4CCC[C@@H](C(=O)N5CCCC5)C4)nc3[nH]2)cc1 [Example 13]	0.0636
O=C([C@@H]1CCCN(c2ccc3nc(C4(Cc5ccccc5)COC4)[nH]c3n2)C1)N1CCCC1 [Example 85]	1.16
O=C([C@@H]1CCCN(c2ccc3nc(C4(c5coc(C6CC6)n5)CC4)[nH]c3n2)C1)N1CCCC1 [Example 195]	0.142
O=C([C@@H]1CCCN(c2ccc3nc(-c4cccc(Cl)c4)[nH]c3n2)C1)N1CCCC1 [Example 41]	0.00456
O=C([C@@H]1CCCN(c2ccc3nc(-c4cccc5ccnn45)[nH]c3n2)C1)N1CCCC1 [Example 12]	0.0547
O=C([C@@H]1CCCN(c2ccc3nc([C@H]4C[C@H]4c4ccccc4)[nH]c3n2)C1)N1CCCC1 [Example 18]	0.196
O=C([C@@H]1CCCN(c2ccc3nc(C4(n5cccn5)CC4)[nH]c3n2)C1)N1CCCC1 [Example 79]	0.23
COc1cccc(-c2nc3ccc(N4CCC[C@@H](C(=O)N5CCCC5)C4)nc3[nH]2)n1 [Example 37]	0.0126

* * *

Some molecules, each annotated with its measured IC50.
tested on: UniProt Q96PD7
assay overview: In vitro DGAT2 assay, IC50 determination with hDGAT2 membrane fraction
Assay type: biochemical
experimental context: geometric mean; background for complete inhibition of DGAT2 obtained with 50 μM (1R,2R)-2-({3′-Fluoro-4′-[(6-fluoro-1,3-benzothiazol-2-yl)amino]-1,1′-biphenyl-4-yl}carbonyl)cyclopentanecarboxylic acid; read-out: DGAT2 IC50
experimental endpoint: IC50 (nM)

smiles code	experimental result
O=C([C@@H]1CCCN(c2ccc3nc(COc4ccc(Cl)cc4)[nH]c3n2)C1)N1CCCC1	10.7
O=C([C@H]1CN(c2ccc3nc(-c4cccc(C5CC5)n4)[nH]c3n2)CCO1)N1CCOCC1	162
O=C([C@@H]1CCCN(c2ccc3nc(-c4cccc(C5(O)COC5)n4)[nH]c3n2)C1)N1CCCC1	697
O=C([C@@H]1CCCN(c2ccc3nc(C4CCC4)[nH]c3n2)C1)N1CCCC1	2530
O=C([C@@H]1CCCN(c2ccc3nc(-c4ccnc(NC5CC5)n4)[nH]c3n2)C1)N1CCCC1	89.6
O=C([C@@H]1CCCN(c2ccc3nc(-c4coc(C5CC5)n4)[nH]c3n2)C1)N1CCCC1	301
Cc1cncc(-c2nc3ccc(N4CCC[C@@H](C(=O)N5CCCC5)C4)nc3[nH]2)c1	97

* * *

tested on: Human DGAT2 (hDGAT2) (Homo sapiens (Human), UniProt Q96PD7)
Sequence (Q96PD7 whole entry): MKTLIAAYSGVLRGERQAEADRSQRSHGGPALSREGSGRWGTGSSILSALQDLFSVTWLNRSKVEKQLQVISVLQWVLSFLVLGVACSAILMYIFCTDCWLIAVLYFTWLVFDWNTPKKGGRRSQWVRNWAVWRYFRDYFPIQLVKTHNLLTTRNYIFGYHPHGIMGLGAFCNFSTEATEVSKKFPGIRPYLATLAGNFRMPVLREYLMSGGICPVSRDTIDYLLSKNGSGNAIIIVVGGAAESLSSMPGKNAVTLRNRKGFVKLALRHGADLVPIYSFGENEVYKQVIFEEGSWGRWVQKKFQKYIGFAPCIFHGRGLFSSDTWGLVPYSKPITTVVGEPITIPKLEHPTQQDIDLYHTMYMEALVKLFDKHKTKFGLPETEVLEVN
assay overview: In vitro DGAT2 assay, IC50 determination with hDGAT2 membrane fraction
Assay type: biochemical
experimental context: geometric mean; background for complete inhibition of DGAT2 obtained with 50 μM (1R,2R)-2-({3′-Fluoro-4′-[(6-fluoro-1,3-benzothiazol-2-yl)amino]-1,1′-biphenyl-4-yl}carbonyl)cyclopentanecarboxylic acid; read-out: DGAT2 IC50
Class key for IC50 values: low-valued: < 40 nM; mid-valued: ≥ 40 nM and < 200 nM; high-valued: ≥ 200 nM

smiles code	assigned category
CC(C)(O)c1cccc(-c2nc3ccc(N4CCC[C@@H](C(=O)N5CCCC5)C4)nc3[nH]2)n1	mid-valued
O=C([C@@H]1CCCN(c2ccc3nc(C4(c5cccnc5)CCC4)[nH]c3n2)C1)N1CCCC1	mid-valued
O=C([C@@H]1CCCN(c2ccc3nc(C4(n5ccnc5)CC4)[nH]c3n2)C1)N1CCCC1	high-valued
C[C@@H](c1nc2cnc(N3CCC[C@@H](C(=O)N4CCCC4)C3)nc2[nH]1)n1cc(Cl)cn1	mid-valued
O=C([C@@H]1CCCN(c2ccc3nc(C4(c5ncccn5)CC4)[nH]c3n2)C1)N1CCCC1	high-valued
COc1cccc(C2(c3nc4ccc(N5CCC[C@@H](C(=O)N6CCCC6)C5)nc4[nH]3)CC2)c1	mid-valued
CC(C)(c1nc2ccc(N3CCC[C@@H](C(=O)N4CCCC4)C3)nc2[nH]1)n1cc(Cl)cn1	low-valued
O=C([C@@H]1CCCN(c2ccc3nc(-c4cccc(-c5cnco5)c4)[nH]c3n2)C1)N1CCCC1	low-valued
O=C([C@@H]1CCCN(c2ccc3nc(-c4cccc(C(F)(F)F)n4)[nH]c3n2)C1)N1CCCC1	low-valued
O=C([C@@H]1CCCN(c2ccc3nc(-c4ccnc(C5CC5)n4)[nH]c3n2)C1)N1CCC1	high-valued
O=C([C@@H]1CCCN(c2ccc3nc(C4(c5ccncc5)CC4)[nH]c3n2)C1)N1CCCC1	high-valued
O=C([C@@H]1CCCN(c2ncc3nc(C4(n5cc(Cl)cn5)CC4)[nH]c3n2)C1)N1CCCC1	low-valued
CCN(CC)C(=O)c1nc2ccc(N3CCC[C@@H](C(=O)N4CCCC4)C3)nc2[nH]1	high-valued
Cc1cccc(C2(c3nc4ccc(N5CCC[C@@H](C(=O)N6CCCC6)C5)nc4[nH]3)CC2)c1	mid-valued
O=C([C@@H]1CCCN(c2ccc3nc(-c4ccnc(C5CC5)n4)[nH]c3n2)C1)N1CC(F)(F)C1	mid-valued

* * *

tested on: Human DGAT2 (hDGAT2) (Homo sapiens (Human))
assay overview: In vitro DGAT2 assay, IC50 determination with hDGAT2 membrane fraction
Assay type: biochemical
experimental context: geometric mean; background for complete inhibition of DGAT2 obtained with 50 μM (1R,2R)-2-({3′-Fluoro-4′-[(6-fluoro-1,3-benzothiazol-2-yl)amino]-1,1′-biphenyl-4-yl}carbonyl)cyclopentanecarboxylic acid; read-out: DGAT2 IC50
pIC50: −log10 of the molar value.
Some molecules, each annotated with its measured pIC50.
experimental endpoint: pIC50

molecule	experimental endpoint	experimental result
O=C([C@@H]1CCCN(c2ccc3nc(-c4coc(-c5ccccc5)n4)[nH]c3n2)C1)N1CCCC1 [Example 39]	pIC50	8.16
O=C([C@@H]1CCCN(c2ccc3nc(-c4cnn(-c5ccccc5)c4)[nH]c3n2)C1)N1CCCC1 [Example 9]	pIC50	7.66
O=C([C@@H]1CCCN(c2ccc3nc(-c4nccc(C5CC5)n4)[nH]c3n2)C1)N1CCCC1 [Example 99]	pIC50	7.14
Cc1cc(C2(c3nc4ccc(N5CCC[C@@H](C(=O)N6CCCC6)C5)nc4[nH]3)CC2)no1 [Example 87]	pIC50	6.99
CCc1csc(-c2nc3ccc(N4CCC[C@@H](C(=O)N5CCCC5)C4)nc3[nH]2)n1 [Example 40]	pIC50	8.19
CN(C)C(=O)[C@@H]1CN(c2ccc3nc(-c4ccnc(C5CC5)n4)[nH]c3n2)CC(F)(F)C1 [Example 165]	pIC50	4.78
O=C([C@@H]1CCCN(c2ccc3nc(-c4ccnc(C5CC5)n4)[nH]c3n2)C1)N1CCC[C@@H]1CO [Example 66]	pIC50	5.98

* * *

tested on: UniProtKB Q96PD7
assay overview: In vitro DGAT2 assay, IC50 determination with hDGAT2 membrane fraction
Type: biochemical
experimental context: geometric mean; background for complete inhibition of DGAT2 obtained with 50 μM (1R,2R)-2-({3′-Fluoro-4′-[(6-fluoro-1,3-benzothiazol-2-yl)amino]-1,1′-biphenyl-4-yl}carbonyl)cyclopentanecarboxylic acid; read-out: DGAT2 IC50
Some compounds, each annotated with its measured log10 of IC50.
experimental endpoint: log10 of IC50 (log10 of the value in nM)

smiles code	log10 of IC50
O=C([C@@H]1CCCN(c2ccc3nc(-c4cncc(C5CC5)c4)[nH]c3n2)C1)N1CCCC1	1.57
O=C([C@@H]1CCCN(c2ccc3nc(-c4cccc(N5CCC5)n4)[nH]c3n2)C1)N1CCCC1	1.33
c1cc(-c2nc3ccc(N4CCC[C@H](c5ncc6n5CCC6)C4)nc3[nH]2)nc(C2CC2)n1	3.63
CN(C)C(=O)[C@@H]1CCCN(c2ccc3nc(-c4ccnc(C5CC5)n4)[nH]c3n2)C1	3.17
O=C([C@@H]1CCCN(c2ccc3nc(C4(n5cc(Cl)cn5)CC4)[nH]c3n2)C1)N1CC(F)(F)C1	1.87
COC(=O)c1cccc(-c2nc3ccc(N4CCC[C@@H](C(=O)N5CCCC5)C4)nc3[nH]2)n1	2.44
c1cc(-c2nc3ccc(N4CCC[C@H](c5nnc6n5CCC6)C4)nc3[nH]2)nc(C2CC2)c1	2.21
CN(C)C(=O)c1cccc(-c2nc3ccc(N4CCC[C@@H](C(=O)N5CCCC5)C4)nc3[nH]2)n1	3.10
O=C([C@@H]1CCCN(c2ccc3nc(C4(n5cc(C(F)(F)F)cn5)CC4)[nH]c3n2)C1)N1CCCC1	1.92
O=C([C@@H]1CCCN(c2ccc3nc(C4(c5ccccn5)CC4)[nH]c3n2)C1)N1CCCC1	2.22
O=C([C@@H]1CCCN(c2ccc3nc(-c4cccc(OC(F)F)c4)[nH]c3n2)C1)N1CCCC1	0.87
CN(C)C(=O)[C@@H]1CCCN(c2ccc3nc(-c4cccc(C5CC5)n4)[nH]c3n2)C1	1.67
O=C([C@@H]1CCCN(c2ccc3nc(-c4cccc(C5CC5)n4)[nH]c3n2)C1)N1CCC(F)(F)C1	1.18
Cc1cnn(C2(c3nc4ccc(N5CCC[C@@H](C(=O)N6CCCC6)C5)nc4[nH]3)CC2)c1	2.02
O=C([C@@H]1CCCN(c2ccc3nc(-c4cccc(C5CC5)n4)[nH]c3n2)C1)N1CC=CC1	0.55
